Tested on: acylamino acid racemase
Method: Influences of metal ions on enzyme activities
Assay type: biochemical, Streptomyces sp. Y-53
Run Parameters: no additives taken as 100; final concentration 10 mM, cobalt chloride excluded
Procedure: Enzyme activities are determined by means of a mixed reaction system comprising 50 μl of a solution of the enzyme, 40 μl of a solution of the substrate, 10 μl of an L-aminoacylase solution and 400 μl of a 50 mM Tris-HCl buffer (pH 7.5 ). […] For the determination of enzyme activities, the amount of methionine produced in the reaction system is determined by high performance liquid chromatography, and the enzyme activity corresponding to the production of 1 μmol/min. methionine is expressed as 1 unit. […]
Measurement Kind: Relative enzyme activity, Additive Concentration 10 mM
Numbers only.

Compound	Readout Value
[Ca+2].[Cl-].[Cl-] [CaCl2]	100
[Cl-].[K+] [KCl]	130
[Cl-].[Li+] [LiCl]	120
O.O.O.O.O.O.[Cl][Cr]([Cl])[Cl] [CrCl3 .6H2 O]	100
O.O.O.O.O.O=S(=O)([O-])[O-].[Cu+2] [CuSO4 .5H2 O]	0

Go through the items and report each one's Relative enzyme activity, Additive Concentration 10 mM.
1. O.O.O.O.O.O.O.O=S(=O)([O-])[O-].[Fe+2] [FeSO4 .7H2 O]
2. O.O.O.O.O.O.[Cl-].[Cl-].[Sr+2] [SrCl2 .6H2 O]
3. O.O.O.O.O.O.O=S(=O)([O-])[O-].[Ni+2] [NiSO4 .6H2 O]
4. O.O.O.O.O.O.O.O.O.O.O.O.O.O.O.O.O=S(=O)([O-])[O-].O=S(=O)([O-])[O-].O=S(=O)([O-])[O-].[Al+3].[Al+3] [Al2 (SO4)3 .16H2 O]

[560, 110, 0, 0]

Go through the items and report each one's Relative enzyme activity, Additive Concentration 10 mM.
1. O=C(O)CN(CCN(CC(=O)O)CC(=O)O)CC(=O)O [EDTA, reference compound]
2. O.O.[Ba+2].[Cl-].[Cl-] [BaCl2 .2H2 O]

[0, 120]

Go through the items and report each one's Relative enzyme activity, Additive Concentration 10 mM.
1. O.O.[Na+].[Na+].[O]=[Mo](=[O])([O-])[O-] [NaMoO4 .2H2 O]
2. O.O.O.O.O.O.O.O=S(=O)([O-])[O-].[Zn+2] [ZnSO4 .7H2 O]
3. [Cl][Pb][Cl] [PbCl2]
4. O=S(=O)([O-])[O-].[Sn+2] [SnSO4]
5. O.O.O.O.O.O.[Cl-].[Cl-].[Co+2] [CoCl2 .6H2 O]
6. [Cl-].[Na+] [NaCl]

1: 0; 2: 80; 3: 100; 4: 100; 5: 140; 6: 130

----------
Record form. Attribute: Relative Activity (L-form substrate). Fill in for each entry.
Tested on: acylamino acid racemase
Method: Substrate specificity of acylamino acid racemase (enzyme activity determination coupled with aminoacylase)
Format: biochemical, Streptomyces sp. Y-53
Run Parameters: amount of produced methionine taken as 100; D-aminoacylase of Y-53 strain coupled; free amino acids checked by amino acid oxidase and HPLC
Numbers only.

Sample answers from the record:
Compound	Relative Activity (L-form substrate)
CSCC[C@H](NC=O)C(=O)O [N-formyl-L-methionine]	63
N[C@@H](Cc1c[nH]c2ccccc12)C(=O)O [L-tryptophan]	0
CC(C)[C@H](N)C(=O)O [L-valine]	0

Go through the items and report each one's Relative Activity (L-form substrate).
1. O=C(CCl)N[C@@H](Cc1ccccc1)C(=O)O [N-chloroacetyl-L-phenylalanine]
2. CC(=O)N[C@@H](C)C(=O)O [N-acetyl-L-alanine]
3. N[C@@H](Cc1ccccc1)C(=O)O [L-phenylalanine]
4. CC(=O)N[C@@H](Cc1c[nH]c2ccccc12)C(=O)O [N-acetyl-L-tryptophan]

[112, 21, 0, 8]

Go through the items and report each one's Relative Activity (L-form substrate).
1. CSCC[C@H](NC(C)=O)C(=O)O [N-acetyl-L-methionine]
2. CC(=O)N[C@H](C(=O)O)C(C)C [N-acetyl-L-valine]
3. CC(=O)N[C@@H](CC(C)C)C(=O)O [N-acetyl-L-leucine]
4. CSCC[C@H](N)C(=O)O [L-methionine]
5. CC(=O)N[C@@H](Cc1ccccc1)C(=O)O [N-acetyl-L-phenylalanine]
6. CC(C)C[C@H](N)C(=O)O [L-leucine]

100
19
74
0
84
0

Go through the items and report each one's Relative Activity (L-form substrate).
1. C[C@H](N)C(=O)O [L-alanine]
2. CC(C)[C@H](NC(=O)CCl)C(=O)O [N-chloroacetyl-L-valine]

1. 0
2. 105

Every entry's value here was drawn from patent US4981799A.
